Attribution: paper PMC6037852

Tgt: HDAC4 (Homo sapiens)
Construct: Genes encoding HDAC4 (residues 648–1057) flanked with NdeI and EcoRI sites; made in house; host or cells: E. coli BL21(DE3)
Sequence (P56524 648-1057): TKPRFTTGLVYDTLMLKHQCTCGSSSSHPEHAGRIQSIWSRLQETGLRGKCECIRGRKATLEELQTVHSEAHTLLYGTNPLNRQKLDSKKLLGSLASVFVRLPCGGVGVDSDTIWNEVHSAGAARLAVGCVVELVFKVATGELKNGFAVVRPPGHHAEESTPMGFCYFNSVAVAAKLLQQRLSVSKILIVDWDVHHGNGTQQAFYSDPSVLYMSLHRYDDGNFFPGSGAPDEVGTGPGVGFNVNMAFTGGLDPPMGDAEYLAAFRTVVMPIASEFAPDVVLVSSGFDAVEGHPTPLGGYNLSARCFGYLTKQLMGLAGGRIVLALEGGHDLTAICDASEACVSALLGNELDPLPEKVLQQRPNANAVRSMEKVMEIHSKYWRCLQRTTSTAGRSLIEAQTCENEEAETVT
Experimental protocol: HDAC fluorometric activity assay, HDAC4
Type: biochemical
Condition notes: Boc-Lys(TFA)-AMC 10 μM; read-out: IC50 Class IIa HDAC4
Readout label: IC50

Guide cases for IC50, answers given:
# Compound, IC50
records = [
    ("O=C(/C=C/c1ccc(O)c(O)c1)c1ccccc1 [Compound 7a]", "31.1 µM"),
    ("O=C(/C=C/c1cc(O)c(O)c(O)c1)CCCCc1ccccc1 [Compound 4j]", "> 40 µM"),
    ("O=C(CCCCc1ccccc1)CCc1cccc(O)c1 [Compound 5d]", "> 40 µM"),
    ("COc1cc(/C=C/C(=O)CCCCc2ccccc2)ccc1O [Compound 4k]", "> 40 µM"),
    ("O=C(/C=C/c1ccc(O)cc1)CCCCc1ccccc1 [Compound 4b]", "> 40 µM"),
    ("COc1cc(CCC(=O)CCCCc2ccccc2)ccc1O [Compound 5i]", "> 40 µM"),
]

Provide IC50 values for the following items, in order.
1. O=C(/C=C/c1ccc(O)c(O)c1)CCCCc1ccccc1 [Compound 4c]
2. O=C(CCCCc1ccccc1)CCc1ccc(O)c(F)c1 [Compound 5f]
3. O=C(CCCCc1ccccc1)CCc1ccc(O)c(Br)c1 [Compound 5h]
4. O=C(/C=C/c1ccc(O)c(O)c1)Cc1ccccc1 [Compound 7b]
5. O=C(/C=C/c1ccc(O)c(Cl)c1)CCCCc1ccccc1 [Compound 4g]
6. O=C(CCCCc1ccccc1)CCc1ccc(O)c(Cl)c1 [Compound 5g]
7. O=C(/C=C/c1cccc(O)c1O)CCCCc1ccccc1 [Compound 4e]

Response:
30.5 µM
> 40 µM
> 40 µM
39.8 µM
> 40 µM
29.9 µM
38.8 µM

* * *

Let's go through some IC50 measurements on UniProt:Q9UQL6 together.
Sequence (Q9UQL6 whole entry): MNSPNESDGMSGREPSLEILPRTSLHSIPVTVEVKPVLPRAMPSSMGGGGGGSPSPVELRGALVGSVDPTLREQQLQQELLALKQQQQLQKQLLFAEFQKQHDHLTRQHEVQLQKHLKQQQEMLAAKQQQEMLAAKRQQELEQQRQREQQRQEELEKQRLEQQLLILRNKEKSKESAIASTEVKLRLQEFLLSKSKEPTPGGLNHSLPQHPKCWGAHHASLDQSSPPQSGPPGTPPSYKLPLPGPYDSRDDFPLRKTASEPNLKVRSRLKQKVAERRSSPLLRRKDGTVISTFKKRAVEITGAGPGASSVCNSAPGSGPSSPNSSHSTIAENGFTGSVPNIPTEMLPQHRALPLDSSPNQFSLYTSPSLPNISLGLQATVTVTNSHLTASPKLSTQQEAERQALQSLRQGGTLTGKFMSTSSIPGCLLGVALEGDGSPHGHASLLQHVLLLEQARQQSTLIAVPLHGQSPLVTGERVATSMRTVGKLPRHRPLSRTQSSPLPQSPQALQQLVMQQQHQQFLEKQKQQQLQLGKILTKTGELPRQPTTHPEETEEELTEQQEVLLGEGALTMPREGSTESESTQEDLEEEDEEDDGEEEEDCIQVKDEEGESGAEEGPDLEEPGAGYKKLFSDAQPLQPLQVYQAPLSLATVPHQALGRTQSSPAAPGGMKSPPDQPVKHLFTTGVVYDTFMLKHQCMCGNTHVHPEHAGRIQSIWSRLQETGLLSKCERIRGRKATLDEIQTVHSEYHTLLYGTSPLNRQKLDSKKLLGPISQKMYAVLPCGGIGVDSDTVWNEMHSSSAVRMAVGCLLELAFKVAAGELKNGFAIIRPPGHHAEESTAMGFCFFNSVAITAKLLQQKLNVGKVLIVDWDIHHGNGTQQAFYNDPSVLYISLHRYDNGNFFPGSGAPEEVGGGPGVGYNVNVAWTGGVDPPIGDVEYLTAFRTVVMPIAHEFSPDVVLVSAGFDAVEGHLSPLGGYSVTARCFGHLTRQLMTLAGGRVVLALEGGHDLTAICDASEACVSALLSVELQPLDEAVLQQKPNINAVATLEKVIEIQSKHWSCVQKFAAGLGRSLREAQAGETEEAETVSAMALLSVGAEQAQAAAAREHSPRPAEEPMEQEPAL

Guide cases for IC50, answers given:
# Chemical structure, Tgt, IC50
records = [
    ("COc1cc(CCC(=O)CCCCc2ccccc2)ccc1O", "UniProt:Q9UQL6", "> 40 µM"),
    ("O=C(CCCCc1ccccc1)CCc1ccc(O)c(Br)c1", "UniProt:Q9UQL6", "> 40 µM"),
    ("O=C(/C=C/c1ccc(O)c(F)c1)CCCCc1ccccc1", "UniProt:Q9UQL6", "> 40 µM"),
]

Provide IC50 values for the following items, in order.
1. O=C(/C=C/c1ccc(O)c(O)c1)c1ccccc1
2. O=C(CCCCc1ccccc1)CCc1ccc(O)c(Cl)c1

Response:
13.1 µM
> 40 µM
